Biological target: human TAS2R4 (Homo sapiens)
Construct: expressed in transfected cells; host or cells: HEK293T-Gα16gust44
Sequence (Q9NYW5 1-299): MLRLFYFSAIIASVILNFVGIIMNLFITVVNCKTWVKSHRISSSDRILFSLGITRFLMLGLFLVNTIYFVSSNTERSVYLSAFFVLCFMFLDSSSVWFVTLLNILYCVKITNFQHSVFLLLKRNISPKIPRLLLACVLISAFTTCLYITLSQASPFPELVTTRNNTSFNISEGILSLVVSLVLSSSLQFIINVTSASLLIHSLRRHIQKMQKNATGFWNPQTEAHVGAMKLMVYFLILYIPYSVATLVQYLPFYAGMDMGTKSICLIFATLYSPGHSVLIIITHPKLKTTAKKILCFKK
Assay: Calcium imaging assay (FLIPR), HEK293T-Gα16gust44 cells transfected with human TAS2R4; also: test concentration or dose not given here
Type: cell-based
Conditions: Time (s) 197.547
value.type: RLU, fluorescence trace (RLU)
// units = RLU; emit number, no label

Below, each entry is followed by its recorded RLU, fluorescence trace result.
[ask] // RLU, fluorescence trace lookup, key: C[C@H](CCC(=O)NCCS(=O)(=O)O)[C@H]1CC[C@H]2[C@@H]3CC[C@@H]4C[C@H](O)CC[C@]4(C)[C@H]3CC[C@]12C
[reply] 147.254

[ask] Next up: C[C@H](CCC(=O)NCCS(=O)(=O)O)[C@H]1CC[C@H]2[C@@H]3[C@H](O)C[C@@H]4C[C@H](O)CC[C@]4(C)[C@H]3C[C@H](O)[C@]12C
[reply] 314.74

New cases:
[ask] // RLU, fluorescence trace lookup, key: C[C@H](CCC(=O)O)[C@H]1CC[C@H]2[C@@H]3[C@H](O)C[C@@H]4C[C@H](O)CC[C@]4(C)[C@H]3C[C@H](O)[C@]12C
[reply] 258.506

---

Target: human TAS2R4 (Homo sapiens)
Construct: expressed in transfected cells; host or cells: HEK293T-Gα16gust44
Experiment: Calcium imaging assay (FLIPR), HEK293T-Gα16gust44 cells transfected with human TAS2R4; also: test concentration or dose not given here
Assay type: cell-based
Details: Time (s) 50.781 (TCA, TLCA: 50.782)
Criterion: RLU, fluorescence trace strictly under 300 RLU. Met: MET. Not met: NOT MET.

For orientation, consider the following solved cases.
[ask] Does the reported RLU, fluorescence trace of the following compound sit strictly below 300 RLU? C[C@H](CCC(=O)NCCS(=O)(=O)O)[C@H]1CC[C@H]2[C@@H]3[C@H](O)C[C@@H]4C[C@H](O)CC[C@]4(C)[C@H]3C[C@H](O)[C@]12C
[reply] NOT MET

[ask] Next up: C[C@H](CCC(=O)O)[C@H]1CC[C@H]2[C@@H]3CC[C@@H]4C[C@H](O)CC[C@]4(C)[C@H]3C[C@H](O)[C@]12C
[reply] NOT MET

[ask] Next up: C[C@H](CCC(=O)O)[C@H]1CC[C@H]2[C@@H]3[C@@H](O)C[C@@H]4C[C@H](O)CC[C@]4(C)[C@H]3CC[C@]12C
[reply] NOT MET

New cases:
[ask] Does the reported RLU, fluorescence trace of the following compound sit strictly below 300 RLU? C[C@H](CCC(=O)O)[C@H]1CC[C@H]2[C@@H]3[C@H](O)C[C@@H]4C[C@H](O)CC[C@]4(C)[C@H]3C[C@H](O)[C@]12C
[reply] NOT MET

[ask] Next up: C[C@H](CCC(=O)NCC(=O)O)[C@H]1CC[C@H]2[C@@H]3[C@H](O)C[C@@H]4C[C@H](O)CC[C@]4(C)[C@H]3C[C@H](O)[C@]12C
[reply] NOT MET

[ask] Next up: C[C@H](CCC(=O)NCCS(=O)(=O)O)[C@H]1CC[C@H]2[C@@H]3CC[C@@H]4C[C@H](O)CC[C@]4(C)[C@H]3CC[C@]12C
[reply] MET
